# assay-explanation: BSK_3C_Proliferation: Cell Proliferation Assessment in the BioMAP Diversity Plus: 3C Assay (AID 2283006)
# assay-setup: primary human endothelial cells (HUVEC)
The source made the active and inactive calls. How the source made its calls: active means hit-call score of the fitted dose curve at least 0.9, where 1 is the maximum; inactive means score below 0.9.
Permitted responses: Y = active, N = inactive

smiles-structure	category-label
Nc1cc([N+](=O)[O-])cc(Cl)c1O	N
O=C(c1ccccc1)c1ccc(O)cc1O	N
FC(F)(F)C(F)(F)C(F)(F)C(F)(F)C(F)(F)C(F)(F)C(F)(F)CCI	N
O=C=Nc1cccc2c(N=C=O)cccc12	N
Cc1ccc(O)c(-n2nc3ccccc3n2)c1	N

Okay, next one:
Test call for this compound, please: "OCC(F)(F)C(F)(F)C(F)(F)CO"
N

====

# target-or-system: Bile acid receptor (Homo sapiens) (UniProt Q96RI1)
# Sequence (Q96RI1 whole entry, looked up): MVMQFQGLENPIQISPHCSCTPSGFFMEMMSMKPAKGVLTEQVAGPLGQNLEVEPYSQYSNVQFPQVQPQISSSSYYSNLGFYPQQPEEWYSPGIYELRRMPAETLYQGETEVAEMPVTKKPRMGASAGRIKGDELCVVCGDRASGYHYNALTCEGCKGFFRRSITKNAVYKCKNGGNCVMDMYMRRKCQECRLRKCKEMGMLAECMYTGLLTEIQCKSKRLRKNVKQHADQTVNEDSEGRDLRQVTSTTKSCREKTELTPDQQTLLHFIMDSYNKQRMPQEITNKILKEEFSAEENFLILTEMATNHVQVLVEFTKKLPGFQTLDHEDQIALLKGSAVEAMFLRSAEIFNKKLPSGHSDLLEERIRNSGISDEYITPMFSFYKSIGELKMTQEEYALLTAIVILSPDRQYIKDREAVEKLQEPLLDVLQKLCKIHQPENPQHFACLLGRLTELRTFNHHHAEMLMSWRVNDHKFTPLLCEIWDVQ
# assay-explanation: ATG_FXR_TRANS: Attagene TRANS-FACTORIAL HepG2 Assay for Farnesoid X Receptor (FXR) (AID 2282979);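 further: hits raise reporter mRNA above DMSO so AC50 marks FXR activation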
# assay-setup: HepG2 Attagene TRANS FXR-GAL4 reporter transcription
Inconclusive results are not listed. Active and inactive are the calls of the source. How the source made its calls: active means hit-call score of the fitted dose curve at least 0.9, where 1 is the maximum; inconclusive means response in the unintended direction; inactive means score below 0.9.
metric: outcome

Examples from the recorded data:
compound	outcome
O=C(c1ccccc1)c1ccc(O)cc1O	inactive
CCOC(=O)CC(=O)C(F)(F)C(F)(F)F	inactive
CC(C)(C)c1cc(CCC(=O)NCCCCCCNC(=O)CCc2cc(C(C)(C)C)c(O)c(C(C)(C)C)c2)cc(C(C)(C)C)c1O	inactive
OCC(F)(F)C(F)(F)C(F)(F)C(F)(F)C(F)(F)C(F)(F)CO	inactive
COc1ccccc1C=O	inactive

// below: outcome requested for another compound
Form: Entry = "OCCCC(F)(F)C(F)(F)C(F)(F)C(F)(F)C(F)(F)C(F)(F)C(F)(F)C(F)(F)F" | System = Bile acid receptor (Homo sapiens) (UniProt Q96RI1) | outcome = ____
inactive

====

# assay-explanation: ATG_Ets_CIS: Attagene CIS-FACTORIAL HepG2 Assay for human Erythroblast Transformation Specific (ETS) (AID 2282941)
# assay-setup: HepG2 ETS cis-reporter transcription, actives raise or lower the signal
Activity calls are given as the source filed them. How the source made its calls: active means hit-call score of the fitted dose curve at least 0.9, where 1 is the maximum; inactive means score below 0.9.
Permitted responses: active, inactive

# example entries with known answers
compound	category-label
C[Si](C)O[Si](C)C	inactive
O=S(=O)(O)CCC(F)(F)C(F)(F)C(F)(F)C(F)(F)F	inactive
CCOC(=O)CC(=O)C(F)(F)C(F)(F)F	inactive
Brc1ccccn1	inactive
O=C(O)C(F)(F)C(F)(F)C(F)(F)C(F)(F)C(F)(F)C(F)(F)C(F)F	inactive

Okay, next one:
Test call for this compound, please: "CCCCCC/C=C/CCCCCCCC(=O)O"
inactive

====

# Read-out: Monokine induced gamma interferon (MIG), CXCL9 (gene 4283)
# assay-explanation: BSK_CASM3C_MIG: BioMAP Diversity Plus: CASM3C Assay for Monokine induced gamma interferon (MIG) Biomarker Activity (AID 2283048);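 further: MIG protein level measured by ELISA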
# assay-setup: primary human coronary artery smooth muscle cells; actives raise or lower the signal
Active and inactive are the calls of the source. How the source made its calls: active means hit-call score of the fitted dose curve at least 0.9, where 1 is the maximum; inactive means score below 0.9.
metric: outcome

molecule	outcome
O=C(O)CCC(F)(F)C(F)(F)C(F)(F)F	inactive
CC(C)(C)c1cc(CCC(=O)NCCCCCCNC(=O)CCc2cc(C(C)(C)C)c(O)c(C(C)(C)C)c2)cc(C(C)(C)C)c1O	inactive
CCN(CC)c1ccc(N=Nc2ccccc2)cc1	inactive
O=C=Nc1cccc2c(N=C=O)cccc12	inactive
O=C(O)C(F)(F)C(F)(F)C(F)(F)OC(F)(F)F	inactive
NCC(F)(F)C(F)(F)C(F)(F)C(F)(F)C(F)(F)C(F)(F)F	inactive
O=C(O)CCC(F)(F)C(F)(F)C(F)(F)C(F)(F)C(F)(F)C(F)(F)C(F)(F)F	inactive
Cc1cnccn1	inactive
OCC(O)CC(F)(F)C(F)(F)C(F)(F)C(F)(F)F (stereo unspecified)	inactive
CN(C(=O)C(F)(F)C(F)(F)C(F)(F)F)[Si](C)(C)C	inactive

// below: outcome requested for another molecule
May I ask what outcome has been recorded for "O=C(F)C1(F)C(F)(F)C(F)(F)C(F)(F)C(F)(F)C1(F)F" ?
inactive

====

# target-or-system: AR (gene 367)
# assay-explanation: ACEA_AR_agonist_80hr: ACEA Biosciences xCELLigence Real-Time Cell Analysis on Androgen Receptor Agonism for Proliferation (AID 2283783);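 further: hits increase impedance growth signal above DMSO baseline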
# Procedure: ACEA_AR_agonist is a cell-based, single-readout assay that uses 22Rv1, a human prostate cancer cell line, with measurements taken at 80 hours after chemical dosing in a 384-well plate, although TO5 and TO6 (mc0.srcf) used a 96-well plate. Differences in plate size can be ignored given data normalization.ACEA_AR_agonist_80hr is one of two assay component(s) measured or calculated from the ACEA_AR assay. […]
Inconclusive results are not listed. Activity calls are given as the source filed them. Rule for the calls: active = hit-call score of the fitted dose curve at least 0.9, where 1 is the maximum; inconclusive = response in the unintended direction; inactive = score below 0.9.
Permitted responses: active, inactive

compound	target-or-system	category-label
C[C@]12CC[C@H]3C(=CCc4cc(O)ccc43)[C@@H]1CCC2=O	AR (gene 367)	inactive
OCC1CCCO1 (centres undefined)	AR (gene 367)	active

Test call for this compound, please: "COCCOCCC[Si](C)(O[Si](C)(C)C)O[Si](C)(C)C"
inactive

Test call for this compound, please: "F[Si-2](F)(F)(F)(F)F"
inactive

====

# Read-out: urokinase plasminogen activator (uPA), PLAU (gene 5328)
# assay-explanation: BSK_KF3CT_uPA: BioMAP Diversity Plus: KF3CT Assay for urokinase plasminogen activator (uPA) Biomarker Activity (AID 2283075)
# assay-setup: primary human keratinocytes with fibroblasts; actives raise or lower the signal
Calls of active or inactive are those of the source. How the source made its calls: active means hit-call score of the fitted dose curve at least 0.9, where 1 is the maximum; inactive means score below 0.9.
Permitted responses: active, inactive

# example entries with known answers
compound	category-label
C=C(C)C(=O)OCC(F)(F)C(F)(F)C(F)(F)C(F)F	inactive
OCC(O)CC(F)(F)C(F)(F)C(F)(F)C(F)(F)C(F)(F)C(F)(F)C(F)(F)C(F)(F)F (stereo not given)	inactive
O=C(O)C(F)(F)OC(F)(F)C(F)(F)OC(F)(F)C(F)(F)OC(F)(F)F	inactive
OCC(F)(F)C(F)(F)C(F)(F)C(F)(F)C(F)(F)C(F)(F)CO	inactive
CC(C)CCCC(C)CCO (stereo not given)	active

Okay, next one:
Test call for this compound, please: "O=C1c2c(O)ccc(Nc3ccc(CCO)cc3)c2C(=O)c2c([N+](=O)[O-])ccc(O)c21"
inactive

====

# assay-explanation: ATG_MRE_CIS: Attagene CIS-FACTORIAL HepG2 Assay for human Metal Responsive Element (MRE) (AID 2282954)
# assay-setup: HepG2 MRE cis-reporter transcription, Attagene multiplex; actives raise or lower the signal
The source made the active and inactive calls. How the source made its calls: active means hit-call score of the fitted dose curve at least 0.9, where 1 is the maximum; inactive means score below 0.9.
Permitted responses: active, inactive

# example entries with known answers
molecule	category-label
O=C(Cl)C(F)(F)C(F)(F)C(F)(F)C(F)(F)C(F)(F)C(F)(F)C(F)(F)F	inactive
CCCCCCCC/C=C\CCCCCCCC(=O)N(C)CC(=O)O	inactive

Test call for this molecule, please: "C=C(C)C(=O)OCC(F)(F)C(F)(F)C(F)(F)C(F)F"
inactive

Test call for this molecule, please: CCC(=O)OC(C)c1ccccc1 (stereo not given)
inactive

Test call for this molecule, please: "NCC(F)(F)C(F)(F)C(F)(F)C(F)(F)C(F)(F)C(F)(F)F"
inactive

Test call for this molecule, please: "O=C1c2ccccc2C(=O)c2c(Cl)cccc21"
inactive

Test call for this molecule, please: "COc1ccccc1C=O"
inactive

====

# assay-explanation: TOX21_p53_BLA_p2_viability: Viability Assessment in the Tox21 HCT-116 p53 Agonism Beta-lactamase Assay, Phase 2 (AID 2283591);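 further: compound exposure lasted 16 h at 37 °C; actives lower the ATP signal meaning cytotoxicity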
# Description: TOX21_p53_BLA_p2 is a cell-based, single-readout assay that uses HCT116, a human intestinal cell line, […] in a 1536-well plate.TOX21_p53_BLA_p2_viability is an assay readout measuring cellular ATP content and detected with CellTiter-Glo Luciferase-coupled ATP quantitation.TOX21_p53_BLA_p2_viability used a type of viability reporter where loss-of-signal activity can be used to understand changes in the cell viability. […]
Inconclusive results are not listed. Calls of active or inactive are those of the source. The calls were made as follows: active = hit-call score of the fitted dose curve at least 0.9, where 1 is the maximum; inconclusive = response in the unintended direction; inactive = score below 0.9.
Permitted responses: 1.0 (active), 0.0 (inactive)

# example entries with known answers
compound	category-label
O=C1C=CC(=O)N1c1ccc(Cc2ccc(N3C(=O)C=CC3=O)cc2)cc1	1.0
CCN=C1C=CC(=C(c2ccc(N(CC)CC)cc2)c2ccc(N(CC)CC)cc2)c2ccccc21	1.0
Cc1cc(=O)[nH]c(C(C)C)n1	0.0
CCc1cc(Cc2cc(CC)c(N)c(CC)c2)cc(CC)c1N	0.0
O=C1c2c(O)ccc(Nc3ccc(CCO)cc3)c2C(=O)c2c([N+](=O)[O-])ccc(O)c21	0.0

Test call for this compound, please: OCC1CCCO1 (stereo unspecified)
0.0

====

# assay-explanation: BSK_CASM3C_Proliferation: Cell Proliferation Assessment in the BioMAP Diversity Plus: CASM3C Assay (AID 2283047);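 further: sulforhodamine B total protein stain as relative cell number at 560 nm; sub-confluent cells exposed 48 h before staining; fitted both ways against DMSO so gain or loss of cell number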
# assay-setup: primary human coronary artery smooth muscle cells
Activity calls are given as the source filed them. The calls were made as follows: active = hit-call score of the fitted dose curve at least 0.9, where 1 is the maximum; inactive = score below 0.9.
Permitted responses: active, inactive

compound	category-label
OCC(F)(F)C(F)(F)C(F)(F)CO	inactive
CN(C(=O)C(F)(F)C(F)(F)C(F)(F)F)[Si](C)(C)C	inactive
Cc1cc(O)c(C(C)(C)C)cc1C(C)(C)C	active
NCC(F)(F)C(F)(F)C(F)(F)C(F)(F)C(F)(F)C(F)(F)C(F)(F)C(F)(F)F	inactive
FC(F)(F)C(F)(F)C(F)(F)CC1CO1 (configuration not stated)	inactive
O=C(O)C(F)(F)OC(F)(F)C(F)(F)OC(F)(F)C(F)(F)OC(F)(F)F	inactive
O=S(=O)(OCC(F)(F)F)C(F)(F)C(F)(F)C(F)(F)C(F)(F)F	inactive
O=C(c1ccccc1)c1ccc(O)cc1O	inactive

Test call for this compound, please: "O=C=NCc1cccc(CN=C=O)c1"
inactive

Test call for this compound, please: OCC(O)CC(F)(F)C(F)(F)C(F)(F)C(F)(F)C(F)(F)C(F)(F)C(F)(F)C(F)(F)F (configuration not stated)
inactive

Test call for this compound, please: "CC(C)(C)c1cc(CCC(=O)NCCCCCCNC(=O)CCc2cc(C(C)(C)C)c(O)c(C(C)(C)C)c2)cc(C(C)(C)C)c1O"
inactive

Test call for this compound, please: "O=C(F)C1(F)C(F)(F)C(F)(F)C(F)(F)C(F)(F)C1(F)F"
inactive
